Listed next: entries and their corresponding inhibition at 1 µM.
Molecular target: KDR (VEGFR2) (Homo sapiens (Human), UniProt P35968)
Sequence (P35968 20-1356): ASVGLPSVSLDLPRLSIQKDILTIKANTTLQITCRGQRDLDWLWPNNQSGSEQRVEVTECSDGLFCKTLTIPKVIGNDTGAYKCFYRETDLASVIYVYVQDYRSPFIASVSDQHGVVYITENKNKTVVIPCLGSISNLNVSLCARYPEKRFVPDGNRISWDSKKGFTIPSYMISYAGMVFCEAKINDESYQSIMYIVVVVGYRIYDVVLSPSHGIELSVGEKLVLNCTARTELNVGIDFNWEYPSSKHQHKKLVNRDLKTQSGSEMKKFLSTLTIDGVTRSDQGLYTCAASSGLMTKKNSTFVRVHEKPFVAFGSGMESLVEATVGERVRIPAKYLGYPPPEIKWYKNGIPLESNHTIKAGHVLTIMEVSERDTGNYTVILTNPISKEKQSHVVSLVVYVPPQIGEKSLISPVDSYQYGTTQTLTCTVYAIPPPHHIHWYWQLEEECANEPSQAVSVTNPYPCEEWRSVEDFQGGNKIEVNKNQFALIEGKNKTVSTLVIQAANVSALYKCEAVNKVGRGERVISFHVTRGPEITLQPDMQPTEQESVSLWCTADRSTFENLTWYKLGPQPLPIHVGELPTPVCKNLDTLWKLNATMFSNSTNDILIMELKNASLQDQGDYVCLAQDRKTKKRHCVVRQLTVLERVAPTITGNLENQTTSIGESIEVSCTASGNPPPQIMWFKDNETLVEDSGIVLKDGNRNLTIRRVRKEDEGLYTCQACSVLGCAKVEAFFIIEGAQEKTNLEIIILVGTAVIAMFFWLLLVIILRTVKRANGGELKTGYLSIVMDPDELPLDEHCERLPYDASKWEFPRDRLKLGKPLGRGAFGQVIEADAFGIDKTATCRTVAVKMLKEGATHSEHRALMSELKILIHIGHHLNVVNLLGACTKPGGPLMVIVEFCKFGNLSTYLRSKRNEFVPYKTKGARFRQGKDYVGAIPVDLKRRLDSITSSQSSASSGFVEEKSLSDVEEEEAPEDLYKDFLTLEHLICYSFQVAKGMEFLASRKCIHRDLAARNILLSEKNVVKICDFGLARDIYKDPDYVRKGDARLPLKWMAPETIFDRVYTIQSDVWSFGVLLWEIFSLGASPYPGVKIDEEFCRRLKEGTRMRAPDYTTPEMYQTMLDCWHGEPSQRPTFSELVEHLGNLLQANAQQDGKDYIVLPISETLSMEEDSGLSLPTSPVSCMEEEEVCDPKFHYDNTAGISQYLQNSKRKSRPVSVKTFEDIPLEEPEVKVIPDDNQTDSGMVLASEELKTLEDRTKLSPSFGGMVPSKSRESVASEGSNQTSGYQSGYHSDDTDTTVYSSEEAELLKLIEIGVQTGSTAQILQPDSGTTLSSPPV
Experiment: Inhibitory activity against kinase KDR, Z'-LYTE method (Invitrogen)
Assay type: biochemical
Details: 1 μM compound; read-out: Inhibition (% inhibition at 1 μM) against KDR

compound: O=C(Nc1cc(F)cc(Oc2ccc3nccnc3c2)c1)c1cccc(C(F)(F)F)c1 [Compound C015]
inhibition at 1 µM: < 70%
--
compound: O=C(Nc1cccc(F)c1)Nc1cccc(Oc2ccc3ncc(N4CCNCC4)nc3c2)c1 [Compound C037]
inhibition at 1 µM: 70 to 89%
--
compound: O=C(Nc1cc(F)cc(Oc2ccc3nccnc3c2)c1)Nc1cccc(C(F)(F)F)c1 [Compound C021]
inhibition at 1 µM: 70 to 89%
--
compound: O=C(Nc1cc(F)cc(F)c1)Nc1cccc(Oc2ccc3ncc(N4CCOCC4)nc3c2)c1 [Compound C045]
inhibition at 1 µM: < 70%

---

Listed next: entries and their corresponding inhibition at 1 µM.
Target: KDR (VEGFR2) (Homo sapiens (Human), UniProt P35968)
Experiment: Inhibitory activity against kinase KDR, Z'-LYTE method (Invitrogen)
Type: biochemical
Conditions: 1 μM compound; read-out: Inhibition (% inhibition at 1 μM) against KDR
readout.label: inhibition at 1 µM

molecule: O=C(Nc1cccc(Oc2ccc3ncc(N4CCOCC4)nc3c2)c1)Nc1ccc(F)c(F)c1 [Compound C044]
target.or.test.system: KDR (VEGFR2) (Homo sapiens (Human), UniProt P35968)
readout.label: inhibition at 1 µM
measured.value: 70 to 89%
//
molecule: O=C(Nc1ccc(F)cc1)Nc1cccc(Oc2ccc3ncc(N4CCOCC4)nc3c2)c1 [Compound C043]
target.or.test.system: KDR (VEGFR2) (Homo sapiens (Human), UniProt P35968)
readout.label: inhibition at 1 µM
measured.value: > 89%
//
molecule: O=C(Nc1ccc(F)cc1)Nc1ccc(F)c(Oc2ccc3ncc(N4CCOCC4)nc3c2)c1 [Compound C053]
target.or.test.system: KDR (VEGFR2) (Homo sapiens (Human), UniProt P35968)
readout.label: inhibition at 1 µM
measured.value: 70 to 89%
//
molecule: CCCNC(=O)Nc1cccc(Oc2ccc3nccnc3c2)c1 [Compound C071]
target.or.test.system: KDR (VEGFR2) (Homo sapiens (Human), UniProt P35968)
readout.label: inhibition at 1 µM
measured.value: < 70%
//
molecule: O=C(Nc1ccc(F)cc1)Nc1cccc(Oc2ccc3ncc(N4CCNCC4)nc3c2)c1 [Compound C038]
target.or.test.system: KDR (VEGFR2) (Homo sapiens (Human), UniProt P35968)
readout.label: inhibition at 1 µM
measured.value: > 89%
//
molecule: O=C(Nc1ccc(F)c(Oc2ccc3nccnc3c2)c1)c1cccc(C(F)(F)F)c1 [Compound C018]
target.or.test.system: KDR (VEGFR2) (Homo sapiens (Human), UniProt P35968)
readout.label: inhibition at 1 µM
measured.value: 70 to 89%
//
molecule: O=C(Nc1ccc(F)cc1)Nc1ccc(Oc2ccc3ncc(N4CCNCC4)nc3c2)cc1 [Compound C090]
target.or.test.system: KDR (VEGFR2) (Homo sapiens (Human), UniProt P35968)
readout.label: inhibition at 1 µM
measured.value: > 89%
//
molecule: O=C(Nc1cccc(Oc2ccc3nccnc3c2)c1)Nc1cccc(C(F)(F)F)c1 [Compound C003]
target.or.test.system: KDR (VEGFR2) (Homo sapiens (Human), UniProt P35968)
readout.label: inhibition at 1 µM
measured.value: > 89%
//
molecule: O=C(Nc1cccc(C(F)(F)F)c1)Nc1ccc(F)c(Oc2ccc3ncc(N4CCNCC4)nc3c2)c1 [Compound C065]
target.or.test.system: KDR (VEGFR2) (Homo sapiens (Human), UniProt P35968)
readout.label: inhibition at 1 µM
measured.value: > 89%
//
molecule: O=C(Nc1cccc(C(F)(F)F)c1)Nc1ccc(F)c(Oc2ccc3ncc(N4CCOCC4)nc3c2)c1 [Compound C035]
target.or.test.system: KDR (VEGFR2) (Homo sapiens (Human), UniProt P35968)
readout.label: inhibition at 1 µM
measured.value: 70 to 89%
//
molecule: O=C(Nc1ccc(Cl)cc1)Nc1ccc(F)c(Oc2ccc3ncc(N4CCOCC4)nc3c2)c1 [Compound C057]
target.or.test.system: KDR (VEGFR2) (Homo sapiens (Human), UniProt P35968)
readout.label: inhibition at 1 µM
measured.value: 70 to 89%
//
molecule: O=C(Nc1cccc(Cl)c1)Nc1ccc(F)c(Oc2ccc3ncc(N4CCOCC4)nc3c2)c1 [Compound C055]
target.or.test.system: KDR (VEGFR2) (Homo sapiens (Human), UniProt P35968)
readout.label: inhibition at 1 µM
measured.value: 70 to 89%
//
molecule: O=C(Nc1cccc(F)c1)Nc1ccc(F)c(Oc2ccc3ncc(N4CCNCC4)nc3c2)c1 [Compound C059]
target.or.test.system: KDR (VEGFR2) (Homo sapiens (Human), UniProt P35968)
readout.label: inhibition at 1 µM
measured.value: 70 to 89%
//
molecule: O=C(Nc1ccc(F)c(F)c1)Nc1ccc(F)c(Oc2ccc3ncc(N4CCNCC4)nc3c2)c1 [Compound C061]
target.or.test.system: KDR (VEGFR2) (Homo sapiens (Human), UniProt P35968)
readout.label: inhibition at 1 µM
measured.value: 70 to 89%
//
molecule: O=C(Nc1ccc(Oc2ccc3ncc(N4CCOCC4)nc3c2)cc1)Nc1cccc(Cl)c1 [Compound C081]
target.or.test.system: KDR (VEGFR2) (Homo sapiens (Human), UniProt P35968)
readout.label: inhibition at 1 µM
measured.value: > 89%
//
molecule: O=C(Nc1ccc(F)c(Oc2ccc3ncc(N4CCOCC4)nc3c2)c1)c1cccc(F)c1 [Compound C025]
target.or.test.system: KDR (VEGFR2) (Homo sapiens (Human), UniProt P35968)
readout.label: inhibition at 1 µM
measured.value: 70 to 89%

---

Listed next: entries and their corresponding inhibition at 1 µM.
Biological target: UniProt:P35968
Assay: Inhibitory activity against kinase KDR, Z'-LYTE method (Invitrogen)
Format: biochemical
Settings: 1 μM compound; read-out: Inhibition (% inhibition at 1 μM) against KDR

molecule: O=C(Nc1cccc(Cl)c1)Nc1cccc(Oc2ccc3ncc(N4CCNCC4)nc3c2)c1
target.or.test.system: UniProt:P35968
inhibition at 1 µM: > 89%

molecule: O=C(Nc1ccc(F)c(Oc2ccc3ncc(N4CCOCC4)nc3c2)c1)Nc1ccc(Cl)c(C(F)(F)F)c1
target.or.test.system: UniProt:P35968
inhibition at 1 µM: > 89%

molecule: O=C(Nc1cccc(Oc2ccc3ncc(N4CCOCC4)nc3c2)c1)Nc1ccc(Cl)c(C(F)(F)F)c1
target.or.test.system: UniProt:P35968
inhibition at 1 µM: > 89%

molecule: O=C(Nc1ccc(Oc2ccc3nccnc3c2)cc1)Nc1cccc(C(F)(F)F)c1
target.or.test.system: UniProt:P35968
inhibition at 1 µM: 70 to 89%

---

Listed next: entries and their corresponding pIC50.
Target: BRAF V600E (Homo sapiens (Human), UniProt P15056, V600E)
Sequence (P15056 whole entry V600E): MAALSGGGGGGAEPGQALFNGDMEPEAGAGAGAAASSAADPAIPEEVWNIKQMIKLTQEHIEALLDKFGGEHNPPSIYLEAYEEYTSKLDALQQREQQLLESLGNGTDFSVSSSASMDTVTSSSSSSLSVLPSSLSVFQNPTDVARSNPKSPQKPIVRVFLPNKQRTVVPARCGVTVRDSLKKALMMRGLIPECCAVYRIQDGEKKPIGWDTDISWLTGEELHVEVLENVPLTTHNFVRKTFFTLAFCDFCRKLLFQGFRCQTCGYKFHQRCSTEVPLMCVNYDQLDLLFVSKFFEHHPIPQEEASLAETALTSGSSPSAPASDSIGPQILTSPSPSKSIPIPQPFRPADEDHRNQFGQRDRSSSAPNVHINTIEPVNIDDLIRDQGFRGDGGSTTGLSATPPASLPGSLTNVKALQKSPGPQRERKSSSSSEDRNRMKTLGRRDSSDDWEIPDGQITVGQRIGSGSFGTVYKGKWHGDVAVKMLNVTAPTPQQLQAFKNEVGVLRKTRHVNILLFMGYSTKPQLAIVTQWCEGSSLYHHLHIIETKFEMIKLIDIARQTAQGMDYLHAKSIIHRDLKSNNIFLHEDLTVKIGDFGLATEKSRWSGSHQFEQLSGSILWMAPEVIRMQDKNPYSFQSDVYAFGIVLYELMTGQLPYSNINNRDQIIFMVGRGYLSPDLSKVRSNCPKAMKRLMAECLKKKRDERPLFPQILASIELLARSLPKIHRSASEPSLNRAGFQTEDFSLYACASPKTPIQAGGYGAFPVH
Assay: Inhibitory activity against kinase BRAF V600E, Z'-LYTE method (Invitrogen)
pIC50: −log10 of the molar value.

compound: COc1ccc(NC(=O)Nc2cccc(Oc3ccc4nccnc4c3)c2)cc1 [Compound C069]
pIC50: > 7.00

compound: O=C(Nc1ccc(Oc2ccc3nccnc3c2)cc1)Nc1cccc(C(F)(F)F)c1 [Compound C075]
pIC50: < 7.00

compound: O=C(Nc1cccc(Oc2ccc3nccnc3c2)c1)c1cccc(C(F)(F)F)c1 [Compound C005]
pIC50: > 7.00

compound: O=C(Nc1ccc(F)c(Oc2ccc3ncc(N4CCOCC4)nc3c2)c1)Nc1ccc(Cl)c(C(F)(F)F)c1 [Compound C009]
pIC50: < 7.00

compound: O=C(Nc1cccc(Oc2ccc3nccnc3c2)c1)Nc1ccc(Cl)c(C(F)(F)F)c1 [Compound C001]
pIC50: < 7.00

compound: O=C(Nc1cccc(Oc2ccc3nccnc3c2)c1)Nc1cccc(C(F)(F)F)c1 [Compound C003]
pIC50: < 7.00

---

Molecular target: BRAF (Homo sapiens (Human), UniProt P15056)
Sequence (P15056 whole entry): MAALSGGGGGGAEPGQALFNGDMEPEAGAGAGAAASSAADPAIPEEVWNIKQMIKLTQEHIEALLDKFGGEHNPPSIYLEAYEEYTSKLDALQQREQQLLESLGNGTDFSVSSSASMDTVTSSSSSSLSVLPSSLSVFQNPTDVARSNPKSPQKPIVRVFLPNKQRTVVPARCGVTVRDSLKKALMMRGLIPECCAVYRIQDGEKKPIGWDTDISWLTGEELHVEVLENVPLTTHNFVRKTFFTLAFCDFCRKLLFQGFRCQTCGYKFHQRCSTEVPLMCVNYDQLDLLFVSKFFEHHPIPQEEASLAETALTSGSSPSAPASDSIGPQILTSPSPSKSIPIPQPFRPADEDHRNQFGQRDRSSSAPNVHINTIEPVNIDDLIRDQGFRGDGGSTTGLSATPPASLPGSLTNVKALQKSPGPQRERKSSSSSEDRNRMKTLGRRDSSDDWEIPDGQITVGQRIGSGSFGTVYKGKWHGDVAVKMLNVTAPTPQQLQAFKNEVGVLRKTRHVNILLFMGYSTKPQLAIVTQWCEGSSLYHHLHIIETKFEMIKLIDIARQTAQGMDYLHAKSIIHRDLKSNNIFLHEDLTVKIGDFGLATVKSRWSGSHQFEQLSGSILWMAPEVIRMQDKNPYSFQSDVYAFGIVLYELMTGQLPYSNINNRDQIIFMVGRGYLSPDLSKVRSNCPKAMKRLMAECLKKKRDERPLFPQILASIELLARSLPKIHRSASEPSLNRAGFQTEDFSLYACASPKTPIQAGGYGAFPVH
Experiment: Inhibitory activity against kinase BRAF, Z'-LYTE method (Invitrogen)
Type: biochemical
Conditions: 1 μM compound

molecule: O=C(Nc1cccc(F)c1)Nc1cccc(Oc2ccc3nccnc3c2)c1
target.or.test.system: BRAF (Homo sapiens (Human), UniProt P15056)
inhibition at 1 µM: 70 to 89%
--
molecule: O=C(Nc1cc(F)cc(F)c1)Nc1ccc(F)c(Oc2ccc3ncc(N4CCOCC4)nc3c2)c1
target.or.test.system: BRAF (Homo sapiens (Human), UniProt P15056)
inhibition at 1 µM: < 70%
--
molecule: O=C(Nc1ccc(F)cc1)Nc1cccc(Oc2ccc3ncc(N4CCOCC4)nc3c2)c1
target.or.test.system: BRAF (Homo sapiens (Human), UniProt P15056)
inhibition at 1 µM: 70 to 89%
--
molecule: O=C(Nc1cccc(F)c1)Nc1ccc(F)c(Oc2ccc3ncc(N4CCNCC4)nc3c2)c1
target.or.test.system: BRAF (Homo sapiens (Human), UniProt P15056)
inhibition at 1 µM: > 89%
--
molecule: O=C(Nc1cccc(F)c1)Nc1ccc(F)c(Oc2ccc3ncc(N4CCOCC4)nc3c2)c1
target.or.test.system: BRAF (Homo sapiens (Human), UniProt P15056)
inhibition at 1 µM: < 70%
--
molecule: O=C(Nc1ccc(F)cc1)Nc1ccc(Oc2ccc3ncc(N4CCOCC4)nc3c2)cc1
target.or.test.system: BRAF (Homo sapiens (Human), UniProt P15056)
inhibition at 1 µM: < 70%
--
molecule: O=C(Nc1ccc(Cl)cc1)Nc1cccc(Oc2ccc3ncc(N4CCNCC4)nc3c2)c1
target.or.test.system: BRAF (Homo sapiens (Human), UniProt P15056)
inhibition at 1 µM: > 89%
--
molecule: O=C(Nc1ccc(F)cc1)Nc1ccc(F)c(Oc2ccc3ncc(N4CCNCC4)nc3c2)c1
target.or.test.system: BRAF (Homo sapiens (Human), UniProt P15056)
inhibition at 1 µM: > 89%
--
molecule: N#Cc1ccc(NC(=O)Nc2cccc(Oc3ccc4nccnc4c3)c2)cc1C(F)(F)F
target.or.test.system: BRAF (Homo sapiens (Human), UniProt P15056)
inhibition at 1 µM: < 70%
--
molecule: O=C(Nc1cc(F)cc(F)c1)Nc1cccc(Oc2ccc3ncc(N4CCNCC4)nc3c2)c1
target.or.test.system: BRAF (Homo sapiens (Human), UniProt P15056)
inhibition at 1 µM: > 89%
--
molecule: O=C(Nc1ccc(Oc2ccc3nccnc3c2)cc1)Nc1cccc(F)c1
target.or.test.system: BRAF (Homo sapiens (Human), UniProt P15056)
inhibition at 1 µM: < 70%
--
molecule: O=C(Nc1ccc(Cl)cc1)Nc1cccc(Oc2ccc3ncc(N4CCOCC4)nc3c2)c1
target.or.test.system: BRAF (Homo sapiens (Human), UniProt P15056)
inhibition at 1 µM: 70 to 89%
--
molecule: O=C(Nc1ccc(Oc2ccc3ncc(N4CCNCC4)nc3c2)cc1)Nc1cccc(Cl)c1
target.or.test.system: BRAF (Homo sapiens (Human), UniProt P15056)
inhibition at 1 µM: > 89%
--
molecule: O=C(Nc1ccc(F)cc1)Nc1cccc(Oc2ccc3ncc(N4CCNCC4)nc3c2)c1
target.or.test.system: BRAF (Homo sapiens (Human), UniProt P15056)
inhibition at 1 µM: > 89%
--
molecule: O=C(Nc1cc(F)cc(F)c1)Nc1ccc(F)c(Oc2ccc3ncc(N4CCNCC4)nc3c2)c1
target.or.test.system: BRAF (Homo sapiens (Human), UniProt P15056)
inhibition at 1 µM: > 89%
--
molecule: O=C(Nc1ccc(F)c(Oc2ccc3ncc(N4CCNCC4)nc3c2)c1)Nc1ccc(Cl)c(C(F)(F)F)c1
target.or.test.system: BRAF (Homo sapiens (Human), UniProt P15056)
inhibition at 1 µM: < 70%
